B1: Tyrosine-protein kinase Lck, residues 63 to 120; numbered along this chain, P06239 (parent)
chain: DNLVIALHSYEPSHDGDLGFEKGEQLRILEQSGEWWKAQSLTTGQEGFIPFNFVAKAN

variants of: B1; experiment: abundance fitness (aPCA) (normalised: wild type 0, dead -1); higher = more abundant; growth selection in yeast, the domain comes from the species named; details: Homo sapiens
Classes are defined on abundance fitness with ranges Low = under -0.6, Medium = from -0.6 up to -0.2, High = -0.2 and over

Example entries begin here.
variant-spec | group-label
E46C | High
K56E | High
T43Y | Low
A55Y | Medium
H14D | Medium
Q45G | Medium
P12D | Medium
P50S | Low

Request: Looking at F48H , which class would you pick?
Result: High

Request: Looking at A57P , which class would you pick?
Result: High

Request: Looking at I49P , which class would you pick?
Result: Low
